Biological target: CDK9/cyclin T1 (Homo sapiens, UniProt P50750)
Sequence (O60563 whole entry): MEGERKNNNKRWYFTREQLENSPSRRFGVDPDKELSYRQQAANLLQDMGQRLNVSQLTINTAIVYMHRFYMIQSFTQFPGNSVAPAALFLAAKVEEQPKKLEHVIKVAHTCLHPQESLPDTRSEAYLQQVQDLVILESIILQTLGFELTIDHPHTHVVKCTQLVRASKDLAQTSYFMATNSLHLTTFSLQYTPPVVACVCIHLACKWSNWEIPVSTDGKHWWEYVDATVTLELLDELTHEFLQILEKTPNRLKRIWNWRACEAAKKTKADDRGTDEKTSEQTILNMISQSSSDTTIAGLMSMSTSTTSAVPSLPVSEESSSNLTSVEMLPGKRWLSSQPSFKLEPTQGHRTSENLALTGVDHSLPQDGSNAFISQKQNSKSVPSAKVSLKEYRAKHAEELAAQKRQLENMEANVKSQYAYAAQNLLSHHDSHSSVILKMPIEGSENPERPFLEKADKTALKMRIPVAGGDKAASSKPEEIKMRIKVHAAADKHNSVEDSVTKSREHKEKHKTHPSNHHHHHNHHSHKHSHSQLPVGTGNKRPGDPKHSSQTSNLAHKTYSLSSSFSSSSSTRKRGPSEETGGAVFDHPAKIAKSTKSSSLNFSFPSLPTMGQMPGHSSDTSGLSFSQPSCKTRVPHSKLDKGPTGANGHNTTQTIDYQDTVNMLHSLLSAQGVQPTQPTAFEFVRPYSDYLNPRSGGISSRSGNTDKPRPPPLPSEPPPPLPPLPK
Sequence (P50750 whole entry): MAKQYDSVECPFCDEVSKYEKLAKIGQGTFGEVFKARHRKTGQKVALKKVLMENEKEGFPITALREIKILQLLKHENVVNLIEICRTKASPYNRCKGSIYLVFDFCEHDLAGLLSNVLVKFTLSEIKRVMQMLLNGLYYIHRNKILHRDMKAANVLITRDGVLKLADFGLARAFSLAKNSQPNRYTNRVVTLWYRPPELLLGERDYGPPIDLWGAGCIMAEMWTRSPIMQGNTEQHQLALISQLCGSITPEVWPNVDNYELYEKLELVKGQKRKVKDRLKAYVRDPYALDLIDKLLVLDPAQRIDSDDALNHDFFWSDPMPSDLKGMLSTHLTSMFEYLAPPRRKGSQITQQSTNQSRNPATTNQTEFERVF
Test: Inhibition of CDK9/cyclin T1 (unknown origin) expressed in baculovirus infected Sf9 cells
readout: IC50

# input # query: IC50 | item `Cn1nc(N)c(/N=N/c2ccncc2)c1N` | system: CDK9/cyclin T1 (Homo sapiens, UniProt P50750)
# output 1350 nM

* * *

Target: Cyclin-dependent kinase 2/cyclin E1 (Homo sapiens)
Experiment: Inhibition of CDK2/cyclin E (unknown origin) expressed in baculovirus infected Sf9 cells
readout: IC50 (µM)
Give the value, in units of µM, as a plain number.

# input I have this molecule here, `Nc1nn(C(=O)c2ccc([N+](=O)[O-])cc2)c(N)c1/N=N/c1ccc(O)cc1` , and I need its recorded IC50.
# output 15

# input Item: `Cn1nc(N)c(/N=N/c2ccncc2)c1N`
# output 16.8

# input Proceed to `CC(=O)n1nc(N)c(/N=N/c2ccc(O)cc2)c1N`
# output 42.8

# input Could you do the same for `Nc1n[nH]c(N)c1/N=N/c1cc[n+]([O-])cc1` , please?
# output 17.4

* * *

Molecular target: Cyclin-dependent kinase 1/cyclin B1 (Homo sapiens)
Sequence (P06493 whole entry): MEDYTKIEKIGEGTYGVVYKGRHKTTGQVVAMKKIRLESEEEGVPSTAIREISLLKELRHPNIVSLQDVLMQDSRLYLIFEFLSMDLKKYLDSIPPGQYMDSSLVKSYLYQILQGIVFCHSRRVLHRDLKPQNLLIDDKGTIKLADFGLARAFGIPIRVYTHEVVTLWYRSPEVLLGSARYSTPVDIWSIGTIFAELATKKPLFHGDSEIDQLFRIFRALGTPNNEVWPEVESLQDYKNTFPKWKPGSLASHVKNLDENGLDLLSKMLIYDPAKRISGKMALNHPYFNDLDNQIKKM
Sequence (P14635 whole entry, further chain): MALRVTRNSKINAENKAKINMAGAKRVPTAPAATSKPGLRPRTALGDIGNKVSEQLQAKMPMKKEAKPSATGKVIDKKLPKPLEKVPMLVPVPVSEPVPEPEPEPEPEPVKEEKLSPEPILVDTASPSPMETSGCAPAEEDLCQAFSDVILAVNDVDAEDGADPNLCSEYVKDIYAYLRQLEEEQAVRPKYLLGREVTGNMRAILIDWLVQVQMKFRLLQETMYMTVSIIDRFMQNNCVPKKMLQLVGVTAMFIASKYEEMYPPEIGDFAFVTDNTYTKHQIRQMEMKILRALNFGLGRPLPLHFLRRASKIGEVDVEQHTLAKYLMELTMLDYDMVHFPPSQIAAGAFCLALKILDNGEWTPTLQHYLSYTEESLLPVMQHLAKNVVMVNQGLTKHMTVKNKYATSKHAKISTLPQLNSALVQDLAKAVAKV
Assay: Inhibition of CDK1/cyclin B (unknown origin) expressed in baculovirus infected Sf9 cells
readout: IC50

# input Request body: readout IC50, system Cyclin-dependent kinase 1/cyclin B1 (Homo sapiens), query `Cn1nc(N)c(/N=N/c2ccncc2)c1N` . Return the value.
# output 11.3 µM

* * *

Target: Cyclin-dependent kinase 4/cyclin D1 (Homo sapiens, UniProt P11802)
Sequence (P11802 whole entry): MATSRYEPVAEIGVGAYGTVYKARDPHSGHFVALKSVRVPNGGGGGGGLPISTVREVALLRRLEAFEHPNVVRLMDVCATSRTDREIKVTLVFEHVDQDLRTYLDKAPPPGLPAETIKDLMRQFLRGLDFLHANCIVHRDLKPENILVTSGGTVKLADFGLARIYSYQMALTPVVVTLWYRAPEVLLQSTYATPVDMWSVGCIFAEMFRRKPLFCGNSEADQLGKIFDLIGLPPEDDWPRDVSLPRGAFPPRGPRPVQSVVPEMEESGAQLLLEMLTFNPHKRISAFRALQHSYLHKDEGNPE
Sequence (P24385 whole entry, further chain): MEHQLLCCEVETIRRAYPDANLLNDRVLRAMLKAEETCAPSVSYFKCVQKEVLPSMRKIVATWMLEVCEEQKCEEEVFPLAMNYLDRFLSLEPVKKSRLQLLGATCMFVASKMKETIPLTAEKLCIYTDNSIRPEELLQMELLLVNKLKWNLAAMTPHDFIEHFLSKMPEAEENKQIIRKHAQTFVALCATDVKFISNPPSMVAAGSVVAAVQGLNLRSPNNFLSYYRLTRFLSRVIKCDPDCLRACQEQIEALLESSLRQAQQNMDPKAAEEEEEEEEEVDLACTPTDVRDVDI
Assay: Inhibition of CDK4/cyclin D1 (unknown origin) expressed in baculovirus infected Sf9 cells
readout: IC50 (µM)
Return type: number; implicit unit µM.

# input Query (compound): `Cn1nc(N)c(/N=N/c2ccncc2)c1N` ; field requested: IC50
# output 0.42

* * *

Biological target: Cyclin-dependent kinase 7/ cyclin H (Homo sapiens, UniProt P50613)
Sequence (P51946 whole entry): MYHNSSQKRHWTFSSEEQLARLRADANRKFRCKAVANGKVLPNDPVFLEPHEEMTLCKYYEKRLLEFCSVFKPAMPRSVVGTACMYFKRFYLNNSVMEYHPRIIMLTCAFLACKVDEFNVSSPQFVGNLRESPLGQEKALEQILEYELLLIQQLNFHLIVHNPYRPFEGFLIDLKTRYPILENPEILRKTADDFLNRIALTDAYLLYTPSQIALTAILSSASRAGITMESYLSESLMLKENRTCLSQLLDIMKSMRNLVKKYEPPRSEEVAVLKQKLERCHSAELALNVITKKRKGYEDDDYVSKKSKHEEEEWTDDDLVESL
Sequence (P50613 whole entry): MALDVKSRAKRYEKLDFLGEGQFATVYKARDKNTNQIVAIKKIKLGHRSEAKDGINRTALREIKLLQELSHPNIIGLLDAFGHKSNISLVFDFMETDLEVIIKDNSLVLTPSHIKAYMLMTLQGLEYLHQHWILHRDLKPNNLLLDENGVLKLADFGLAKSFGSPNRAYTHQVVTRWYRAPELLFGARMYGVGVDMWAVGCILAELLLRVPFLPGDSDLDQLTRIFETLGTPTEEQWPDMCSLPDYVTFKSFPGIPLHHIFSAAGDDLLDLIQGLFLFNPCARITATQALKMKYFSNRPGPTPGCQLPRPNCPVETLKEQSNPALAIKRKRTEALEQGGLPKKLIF
Assay: Inhibition of CDK7/cyclin H (unknown origin) expressed in baculovirus infected Sf9 cells
readout: IC50

# input Entry `Cn1nc(N)c(/N=N/c2ccncc2)c1N` has what IC50?
# output > 50 µM

* * *

Target: Cyclin-dependent kinase 2/cyclin E1 (Homo sapiens)
Test: Inhibition of CDK2/cyclin E (unknown origin) expressed in baculovirus infected Sf9 cells
pIC50: −log10 of the molar value.
readout: pIC50

# input Query the reported pIC50 for Cyclin-dependent kinase 2/cyclin E1 (Homo sapiens); item: `Nc1nn(C(=O)c2cccs2)c(N)c1/N=N/c1ccc(O)cc1`
# output < 4.60

# input Quick one: `Cn1nc(N)c(/N=N/c2ccc(O)cc2)c1N`
# output < 4.30

# input Do the same for `CCOC(=O)n1nc(N)c(/N=N/c2ccc(O)cc2)c1N` please
# output < 4.30

# input Moving on to `Nc1n[nH]c(N)c1/N=N/c1cccc[n+]1[O-]`
# output < 4.00
